Assay: Bidirectional permeability assay across Caco-2 monolayers
Format: in vitro ADME, human
Details: human, Caco-2
readout_kind: Papp B→A at 120 min, 5 μM (×10⁻⁶ cm/s)
Give the value, in units of ×10⁻⁶ cm/s, as a plain number.

query: Suppose we examine the compound CC(=O)O[C@@]12CO[C@@H]1C[C@H](O)[C@@]1(C)C(=O)[C@H](O)C3=C(C)[C@@H](OC(=O)[C@H](O)[C@@H](NC(=O)OC(C)(C)C)c4ccccc4)C[C@@](O)([C@@H](OC(=O)c4ccccc4)[C@H]21)C3(C)C [Docetaxel] ; what Papp B→A at 120 min, 5 μM value has been reported?
result: 35.4

----------
Test: Bidirectional permeability assay across Caco-2 monolayers
Format: in vitro ADME, human
Conditions: human, Caco-2
readout_kind: Papp A→B at 120 min, 10 μM

query: Suppose we examine the molecule CC(=O)O[C@@]12CO[C@@H]1C[C@H](O)[C@@]1(C)C(=O)[C@H](O)C3=C(C)[C@@H](OC(=O)[C@H](O)[C@@H](NC(=O)OC(C)(C)C)c4ccccc4)C[C@@](O)([C@@H](OC(=O)c4ccccc4)[C@H]21)C3(C)C [Docetaxel] ; what Papp A→B at 120 min, 10 μM value has been reported?
result: 0.91 ×10⁻⁶ cm/s

----------
Tested on: OVXF 899
Assay: cells
Details: read-out: Relative ritonavir IC50
readout_kind: IC50 (µM)
Give the value, in units of µM, as a plain number.

query: Suppose we examine the molecule CC(C)c1nc(CN(C)C(=O)N[C@H](C(=O)N[C@@H](Cc2ccccc2)C[C@H](O)[C@H](Cc2ccccc2)NC(=O)OCc2cncs2)C(C)C)cs1 [Ritonavir] ; what IC50 value has been reported?
result: 25.7

----------
Tested on: MAXFTN MCF 10A
Assay: cells
Settings: Homo sapiens, read-out: Relative ritonavir IC50
pIC50: −log10 of the molar value.
readout_kind: pIC50

query: Write down the reported pIC50 of CC(C)c1nc(CN(C)C(=O)N[C@H](C(=O)N[C@@H](Cc2ccccc2)C[C@H](O)[C@H](Cc2ccccc2)NC(=O)OCc2cncs2)C(C)C)cs1 , test system: MAXFTN MCF 10A.
result: < 4.52

----------
Experiment: Bidirectional permeability assay across Caco-2 monolayers
Format: in vitro ADME, human
Conditions: human, Caco-2
Method: Samples were analyzed using LC-MS/MS. The medium was changed 24 h before the experiment. […] The bioanalysis of docetaxel was performed with the . The following equation was used to calculate apparent permeability coefficient (Papp): dQ: amount of transporter test drug in pmol; dT: incubation time in seconds; A: surface of porous membrane in cm^2 (standard: 0.7); C0: initial concentration of test agent in the donor chamber in pmol/cm^3.
readout_kind: Papp A→B at 60 min, 10 μM
Answer with the figure and its unit, nothing else.

query: Suppose we examine the compound CC(=O)O[C@@]12CO[C@@H]1C[C@H](O)[C@@]1(C)C(=O)[C@H](O)C3=C(C)[C@@H](OC(=O)[C@H](O)[C@@H](NC(=O)OC(C)(C)C)c4ccccc4)C[C@@](O)([C@@H](OC(=O)c4ccccc4)[C@H]21)C3(C)C ; what Papp A→B at 60 min, 10 μM value has been reported?
result: 0.66 ×10⁻⁶ cm/s

----------
Assay: Bidirectional permeability assay across Caco-2 monolayers
Format: in vitro ADME, human
Settings: human, Caco-2, docetaxel 5 μM; incubation 120 min; inhibitor where named: valspodar 10 μM or ritonavir 50 μM; read-out: ER
readout_kind: efflux ratio at 120 min, 5 μM
Give a plain numeric answer without units written out.

query: Suppose we examine the compound CC(=O)O[C@@]12CO[C@@H]1C[C@H](O)[C@@]1(C)C(=O)[C@H](O)C3=C(C)[C@@H](OC(=O)[C@H](O)[C@@H](NC(=O)OC(C)(C)C)c4ccccc4)C[C@@](O)([C@@H](OC(=O)c4ccccc4)[C@H]21)C3(C)C ; what efflux ratio at 120 min, 5 μM value has been reported?
result: 43.9
